tested system: Prostaglandin D2 receptor 2 (Homo sapiens, UniProt Q9Y5Y4)
Sequence (Q9Y5Y4 whole entry): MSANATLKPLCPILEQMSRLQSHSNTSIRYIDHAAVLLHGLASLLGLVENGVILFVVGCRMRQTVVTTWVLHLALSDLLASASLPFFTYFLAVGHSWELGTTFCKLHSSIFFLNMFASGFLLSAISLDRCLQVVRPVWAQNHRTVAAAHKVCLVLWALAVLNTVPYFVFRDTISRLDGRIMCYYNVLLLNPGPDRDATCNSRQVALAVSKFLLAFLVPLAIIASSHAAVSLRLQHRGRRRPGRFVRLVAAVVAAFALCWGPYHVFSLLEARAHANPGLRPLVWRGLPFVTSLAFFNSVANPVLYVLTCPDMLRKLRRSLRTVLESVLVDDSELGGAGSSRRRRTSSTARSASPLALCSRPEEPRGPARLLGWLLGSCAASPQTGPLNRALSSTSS
assay overview: Displacement of [3H]PGD2 from human CRTH2 receptor expressed in HEK385-7 cells
Assay type: cell-based
measured metric: IC50 (nM)

[[record]]
mol_smiles = "O=C(O)Cc1sc(N(c2ccc(F)cc2)c2ccc(F)cc2)nc1-c1ccc(F)cc1"
display_unit = "nM"
measured = 23


a: O=C(O)Cc1cnc(N(c2ccc(F)cc2)c2ccc(F)cc2)nc1-c1cccc(F)c1
b: O=C(O)Cc1sc(N(c2ccccc2)c2ccccc2)nc1-c1ccc(Cl)cc1
c: O=C(O)Cc1cnc(C(c2ccc(F)cc2)c2ccc(F)cc2)nc1-c1cccc(F)c1
d: O=C(O)CCc1sc(C(c2ccc(F)cc2)c2ccc(F)cc2)nc1-c1cccc(F)c1
Sort entries by IC50 from minimum to maximum value. I'd appreciate it if you listed the labels in the requested order.
c, b, d, a
(c: 1.9 nM, b: 18 nM, d: 75 nM, a: 1260 nM)

---

tested system: Prostaglandin D2 receptor 2 (Homo sapiens, UniProt Q9Y5Y4)
assay overview: Displacement of [3H]PGD2 from human CRTH2 receptor expressed in HEK385-7 cells
Format: cell-based
measured metric: IC50 (nM)

[[record]]
mol_smiles = "O=C(O)Cc1sc(N(c2ccccc2)c2ccccc2)nc1-c1ccc(F)cc1"
measured = 15


I: CC(c1ccccc1)(c1ccccc1)c1nc(-c2ccc(F)cc2)c(CC(=O)O)s1
II: CS(=O)(=O)c1ccc(N(c2ccccc2)c2nc(-c3ccc(F)cc3)c(CC(=O)O)s2)cc1
III: COc1ccc(N(c2ccc(OC)cc2)c2nc(-c3cccc(F)c3)c(CC(=O)O)s2)cc1
IV: O=C(O)CCc1cnc(C(c2ccc(F)cc2)c2ccc(F)cc2)nc1-c1cccc(F)c1
Sort entries by IC50 from minimum to maximum value. I'd appreciate it if you listed the labels in the requested order.
I, III, II, IV

---

tested system: Prostaglandin D2 receptor (Mus musculus, UniProt P70263)
Sequence (P70263 whole entry): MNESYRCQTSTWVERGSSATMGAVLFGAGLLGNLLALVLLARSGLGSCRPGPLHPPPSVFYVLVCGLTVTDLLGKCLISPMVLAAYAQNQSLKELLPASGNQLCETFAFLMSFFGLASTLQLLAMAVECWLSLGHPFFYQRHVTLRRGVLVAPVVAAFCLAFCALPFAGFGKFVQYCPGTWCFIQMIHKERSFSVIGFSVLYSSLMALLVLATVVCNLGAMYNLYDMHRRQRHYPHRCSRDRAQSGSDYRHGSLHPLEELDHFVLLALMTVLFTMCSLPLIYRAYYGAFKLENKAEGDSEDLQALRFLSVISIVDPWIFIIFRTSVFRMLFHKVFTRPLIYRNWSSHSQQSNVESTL
assay overview: Inhibition of mouse DP receptor
measured metric: pIC50
FYI, pIC50 means -log10 of a concentration in mol per litre.

Output measured pIC50 for this item: O=C(O)Cc1cnc(C(c2ccc(F)cc2)c2ccc(F)cc2)nc1-c1cccc(F)c1
5.23

---

tested system: Prostaglandin D2 receptor 2 (Rattus norvegicus, UniProt Q6XKD3)
Sequence (Q6XKD3 whole entry): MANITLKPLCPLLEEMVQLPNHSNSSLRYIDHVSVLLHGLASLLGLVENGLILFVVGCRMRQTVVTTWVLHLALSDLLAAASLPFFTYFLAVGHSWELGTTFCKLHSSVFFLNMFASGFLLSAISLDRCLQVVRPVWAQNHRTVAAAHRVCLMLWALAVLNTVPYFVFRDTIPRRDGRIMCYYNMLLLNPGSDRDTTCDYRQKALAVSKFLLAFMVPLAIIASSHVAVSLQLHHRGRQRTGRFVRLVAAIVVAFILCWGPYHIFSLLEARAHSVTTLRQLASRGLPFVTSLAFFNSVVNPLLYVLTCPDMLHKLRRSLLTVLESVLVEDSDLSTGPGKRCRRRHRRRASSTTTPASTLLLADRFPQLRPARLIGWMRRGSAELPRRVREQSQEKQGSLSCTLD
assay overview: Inhibition of rat CRTH2 receptor
measured metric: IC50 (nM)
Provide the reading as a plain figure in nM.

Output measured IC50 for this item: O=C(O)Cc1cnc(C(c2ccc(F)cc2)c2ccc(F)cc2)nc1-c1cccc(F)c1
7.5
